- Test system: HOP-62 NSCLC
- Experiment Description: NCI tumour cell line growth inhibition, 48 h
Measured Attribute: GI50

Reference set, count: 2
COc1ccc2c(c1)C(=Nc1ccc(F)c(F)c1F)c1c-2c(Nc2ccc(F)c(F)c2F)nc2ccccc12 = 14.6 µM
CCOC(=O)C(=Cc1ccc(-c2ccccc2)cc1)C(=O)OCC = 3.55 µM

query: Any idea what its GI50 is? The compound is N#C/C(=C\c1ccc2c(c1)OCO2)n1nnc2ccccc21
result: 2.41 µM

---

Reported TGI values are given for each entry in this list.
- Tested on: SF-539 CNS
- Experiment Description: NCI tumour cell line growth inhibition, 48 h

Answered examples (3):
C=C1CC[C@@H]2C(C)(C)[C@H](O)CC[C@@]2(C)[C@@H]1COc1ccc2ccc(=O)oc2c1 = > 100 µM
CC(C)(O)C1CC[C@]2(C)CC[C@]3(C)[C@H](CC[C@@H]4[C@@]5(C)CC[C@H](O)C(C)(C)[C@@H]5CC[C@]43C)[C@@H]12 (some centres undefined) = 55.4 µM
COC1CC(OC2C(C)OC(OC3C(C)OC(OC4CCC5(C)C(=CCC6(O)C5CC(OC(=O)c5ccc(O)cc5)C5(C)C(O)(C(C)=O)CCC65O)C4)CC3OC)CC2OC)OC(C)C1O (centres undefined) (tested in a mixture with another compound) = 72.6 µM

query: Item: CC(C)c1ccc(COCc2cc(CN3CCCC3)c(O)c3ncccc23)cc1 Test system: SF-539 CNS Read-out: TGI Value: ?
result: 2.04 µM

query: Likewise for N=c1c2c(=S)n(-c3ccccc3)c(=S)n(-c3ccccc3)c2nc(SCCCN2CCCCC2)n1-c1ccccc1 ?
result: 16.7 µM

query: What about this molecule? Cc1[nH]n(-c2ncc(C#N)c(=O)[nH]2)c(=O)c1CCO
result: > 100 µM

query: // same read-out, input: CCOC(=O)Oc1ccc(C(CNC(C)C)OC(=O)OCC)cc1OC(=O)OCC (centres undefined)
result: > 100 µM

query: Next record, please: CCOC1CCC2C(CCC(/C=C/c3ccc(O)c4ncccc34)N2C)C1 (centres undefined)
result: 29.2 µM

query: Now try O=C1Nc2ccccc2/C1=C/C(=N/c1nnc(-c2ccc(Cl)cc2)s1)c1ccccc1 .
result: 4.08 µM

query: Now consider Cn1ccnc1C(=O)/C=C/c1ccc(C(=O)Nc2ccc(F)cc2)cc1 .
result: 1.79 µM

query: Ok, now c1ccc(-c2n(Cc3ccc4ccccc4n3)cc[n+]2Cc2ccc3ccccc3n2)cc1
result: 13.2 µM

query: Please do the same for CCN(CC)c1ccc(/C=C/C2=NN(c3cccc(S(=O)(=O)O)c3)C3(C2)SCC(=O)N3c2nc3ccccc3s2)cc1 (centres undefined) as well.
result: > 100 µM

query: Again, but for CCCC(=O)OCC(COC(=O)CCC)OC(=O)CCC
result: > 100 µM

query: Now the molecule CCc1nc(N)c2nc(-c3ccc(C#N)cc3)oc2n1
result: > 100 µM

---

- System: SF-268 CNS
- Experiment Description: NCI tumour cell line growth inhibition, 48 h
Measured Attribute: GI50

query: Which measured GI50 value corresponds to N[C@@H]1CCCC[C@@H]1N.O=P([O-])([O-])CNCP(=O)([O-])[O-].[Pt+2] ?
result: > 100 µM

query: Consider next the compound CN1CCN(CCCOc2ccc3ncnc(Nc4ccc(OCc5cccc(F)c5)c(Cl)c4)c3c2)CC1 in the same way.
result: 1.49 µM

query: And COc1cc(O)c2c3c(ccnc13)-c1ccccc1N2 ?
result: 8.63 µM

query: What do we get for COc1ccc(C(=O)N2N=C(c3ccc(Br)cc3)CC2c2cn(-c3ccccc3)nc2-c2ccccc2)cc1 (centres undefined) ?
result: 34.8 µM

query: And N#C/C(=C\c1ccc2c(c1)OCO2)n1nnc2ccccc21 ?
result: 3.22 µM

query: Note, next up: Fc1cc(-c2csc3n[nH]c(=S)n23)c(Cl)cc1Cl
result: 35.5 µM

query: Consider next the compound CN(C)c1ccc2nc3ccc(=[N+](C)C)c([N+](=O)[O-])c-3sc2c1 in the same way.
result: 2.1 µM

query: Then what about the compound COc1ccc2c(c1)C(=Nc1ccc(F)c(F)c1F)c1c-2c(Nc2ccc(F)c(F)c2F)nc2ccccc12 ?
result: 36.8 µM
